Experiment: ATG_NF_kB_CIS: Attagene CIS-FACTORIAL HepG2 Assay for human Nuclear Factor Kappa B (NF-kB) (AID 2282991)
Details: HepG2 Attagene cis-factorial NF-kB reporter mRNA; actives raise or lower the signal
Active and inactive are the calls of the source. How the source made its calls: active means hit-call score of the fitted dose curve at least 0.9, where 1 is the maximum; inactive means score below 0.9.
Give your call using only these classes: active, inactive

Below are worked cases with known answers.
O=C(NO)C1(NS(=O)(=O)c2ccc(Oc3ccc(F)cc3)cc2)CCOCC1 | inactive
OC(Cn1cncn1)(Cn1cncn1)c1ccc(F)cc1F | inactive
O=C(O)[C@H](O)[C@@H](O)C(=O)O | inactive
NNC(=O)c1ccncc1 | inactive
CCCOc1ccc(S(=O)(=O)N2CCN(CC)CC2)cc1-c1nc2c(CC)n(Cc3ccccn3)nc2c(=O)[nH]1 | active
CCN(CC)C(=S)SSC(=S)N(CC)CC | active
Cn1cc[nH]c1=S | inactive
O=C(Cl)C(F)(F)C(F)(F)C(F)(F)C(=O)Cl | inactive

Call for entry "C=CCc1cc(S(=O)(=O)c2ccc(O)c(CC=C)c2)ccc1O" :
inactive

Could you check what this test reported for "CCn1nc(C)c2c1C(=O)NCC(c1ccc(O)cc1)=N2" ?
inactive

Give the logged outcome of this assay for the following molecule: "OC(CCl)CCl"
inactive

What was the test verdict on "OCCOCCOCCO" ?
inactive

Just curious, what result did "COc1cc2c(c(OC)c1OC)-c1ccc(OC)c(=O)cc1[C@@H](NC(C)=O)CC2" get here?
inactive

Field: outcome | Entry: CC(C)CC(C)O (centres undefined)
inactive

Status in this test for "O=C(O)c1cccc(C[C@@H]2COc3ccc(OCc4nc5cc(F)ccc5s4)cc3[C@@H]2O)c1" ?
active

What outcome does the record of this test show for "OC[C@H]1O[C@@](CO)(O[C@H]2O[C@H](CO)[C@@H](O)[C@H](O)[C@H]2O)[C@@H](O)[C@@H]1O" ?
inactive

What outcome does the record of this test show for "CC(=O)c1ccccc1" ?
inactive

Each molecule tested received a call. Report the one for "Cn1c(=O)c2[nH]cnc2n(C)c1=O" .
inactive

Could you please tell me the result logged for "C[C@@H](Oc1ccc(CNC(=O)c2cccnc2Oc2ccc3c(c2)OCO3)c(F)c1)C(=O)O" in this assay?
inactive

* * *

Experiment: ATG_PXRE_CIS: Attagene CIS-FACTORIAL HepG2 Assay for human Pregnane X Receptor Element (PXRE) (AID 2282957)
Conditions: HepG2 Attagene CIS-FACTORIAL PXRE reporter, mRNA; actives raise or lower the signal
Activity calls are given as the source filed them. The calls were made as follows: active = hit-call score of the fitted dose curve at least 0.9, where 1 is the maximum; inactive = score below 0.9.
reported_endpoint: AC50

Cc1ncc([C@@H](CCCCCCc2ccc3c(n2)NCCC3)CC(=O)O)cn1 | 27.6 µM (active)
OCc1c[nH]c2ccccc12 | 2.76 µM (active) [middle of 5 runs]
CC(=O)c1ccccc1 | inactive
O=C(NO)C1(NS(=O)(=O)c2ccc(Oc3ccc(F)cc3)cc2)CCOCC1 | inactive

* * *

Read-out: ABC Transporter (ABCB1), ABCB1 (gene 5243)
Test: LTEA_HepaRG_ABCB1: Life Technologies and Expression Analysis (LTEA) Assay for ABC Transporter (ABCB1) using HepaRG (AID 2283460)
Details: mRNA level, 48 h; actives raise or lower the signal
Activity calls are given as the source filed them. Rule for the calls: active = hit-call score of the fitted dose curve at least 0.9, where 1 is the maximum; inactive = score below 0.9.
API: response.call in active, inactive

CCCCN1C(=O)[C@@H]([C@H](O)C2CCCCC2)NC(=O)C12CCN(Cc1ccc(Oc3ccc(C(=O)O)cc3)cc1)CC2 | active
CCCCCCCC/C=C\CCCCCCCC(=O)OC[C@@H](O)[C@H]1OC[C@H](O)[C@H]1O | inactive
c1ccc(C(O[C@@H]2CCCN(CCc3ccc4c(c3)OCO4)C2)c2ccccc2)cc1 | active

Would you kindly look at the next entry?
What is the recorded call for this compound in the test? "CCCCCCCCCCCCCCCCOS(=O)(=O)O"
inactive
